Test system: complement
assay-info: Inhibition of complement mediated hemolysis
Assay type: cell-based
reported-conditions: read-out: Inhibition of complement mediated hemolysis (%)
measurement-name: inhibition at 1 µM
Kindly format the answer as number then unit.

Below: 5 molecules and their reported inhibition at 1 µM.
molecule | inhibition at 1 µM
N=C(N)C=Cc1ccc(OC(=O)CCCCCNC(=N)N)cc1 [Compound 9] | 6%
N=C(N)C=Cc1ccc(OC(=O)C=Cc2ccccc2)cc1 [Compound 17, 4-(β-amidinoethenyl)phenyl cinnamate] | 83%
CC(=O)N[C@@H](CC(C)C)C(=O)N[C@@H](CC(C)C)C(=O)N[C@H](C=O)CCCNC(=N)N [Leupeptin, reference compound] | 0%
N=C(N)C=Cc1ccc(OC(=O)c2ccc(NC(=N)N)cc2)cc1 [Compound 35] | 97%
CC(C)CC(=O)Oc1ccc(C=CC(=N)N)cc1 [Compound 2, 4-(β-amidinoethenyl)phenyl isovalerate] | 30%

Answer for every listed entry: what is its inhibition at 1 µM? The entries follow.
1. N=C(N)C=Cc1ccc(OC(=O)CCc2ccccc2)cc1 [Compound 15]
2. N=C(N)C=Cc1ccc(OC(=O)Cc2ccccc2)cc1 [Compound 13, 4-(β-amidinoethenyl)phenyl phenylacetate]
3. CC=CC=CC(=O)Oc1ccc(C=CC(=N)N)cc1 [Compound 4]

Result:
["2%", "6%", "86%"]
